Target sequence: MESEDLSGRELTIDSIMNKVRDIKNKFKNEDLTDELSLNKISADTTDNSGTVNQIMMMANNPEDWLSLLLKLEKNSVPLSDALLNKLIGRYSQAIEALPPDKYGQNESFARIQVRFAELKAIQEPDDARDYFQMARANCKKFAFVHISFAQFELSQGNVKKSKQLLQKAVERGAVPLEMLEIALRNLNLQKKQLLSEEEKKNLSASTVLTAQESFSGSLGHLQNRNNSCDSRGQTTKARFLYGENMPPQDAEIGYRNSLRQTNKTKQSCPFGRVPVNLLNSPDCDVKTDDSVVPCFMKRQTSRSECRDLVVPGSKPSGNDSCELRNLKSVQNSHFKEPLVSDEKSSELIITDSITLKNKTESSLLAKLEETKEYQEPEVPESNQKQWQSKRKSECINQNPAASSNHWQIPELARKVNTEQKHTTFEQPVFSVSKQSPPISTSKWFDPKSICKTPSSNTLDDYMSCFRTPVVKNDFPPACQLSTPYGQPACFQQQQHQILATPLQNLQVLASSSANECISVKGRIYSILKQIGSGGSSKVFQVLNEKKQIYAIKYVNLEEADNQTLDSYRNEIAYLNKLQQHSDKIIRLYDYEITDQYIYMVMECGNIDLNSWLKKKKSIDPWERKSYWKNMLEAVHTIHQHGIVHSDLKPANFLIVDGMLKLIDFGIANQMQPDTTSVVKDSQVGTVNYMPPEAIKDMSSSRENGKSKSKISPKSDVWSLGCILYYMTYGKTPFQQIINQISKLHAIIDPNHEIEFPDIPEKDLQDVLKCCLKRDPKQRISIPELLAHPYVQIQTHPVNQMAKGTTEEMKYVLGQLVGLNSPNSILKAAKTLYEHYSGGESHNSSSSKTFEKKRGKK
Lab note: anything with IC50 below 6 nM is marked yes; values at 6 nM or higher are marked no.

Quick check: IC50 of CCOc1cc(-c2nncn2C)ccc1Nc1nc(NC2CCOCC2)c2cccn2n1 [Compound 4] under 6 nM? yes

Entry to check: CCOc1cc(-c2nncn2C)ccc1Nc1nc(NC2CCCC2)c2cccn2n1 [Compound 3] no

Continue with CCOc1cc(-c2nncn2C)ccc1Nc1ncc2ccc(C3CCOCC3)n2n1 [Compound 17] no

Here is the next molecule: CCOc1cc(-c2nncn2C)ccc1Nc1nc(NC2CCCCC2)c2c(Cl)ccn2n1 [Compound 10] yes

Follow-up entry: CCOc1cc(-c2nncn2C)ccc1Nc1ncc2ccc(C3=CCCC3)n2n1 [Compound 12] no
